- assay-overview: qHTS for Stage-Specific Inhibitors of Vaccinia Orthopoxvirus: mCherry Reporter Primary qHTS; further: nearly all actives have a fitted effect of over 35% in size
- run-conditions: Vaccinia virus mCherry reporter infection, fluorescence; series mostly up to 36.5 µM
About 1,900 (0.61%) of roughly 310,000 compounds were called active. About 8% were inconclusive and are not listed. The call rests on the fitted dose curve; tested in A549 cells. Shown is part of a subset that was picked to be rich in actives.
Please state which outcome applies, choosing from TRUE = active, FALSE = inactive

Given `CCOC(=O)[C@]12CCCC=C1N(CCC1=CCCCC1)C(=O)[C@H](CC(=O)N1CCSCC1)C2` , state the outcome it received in this test. FALSE

Given `CCCn1c(=N)n(CC(=O)c2ccc(Cl)c(Cl)c2)c2ccccc21` , state the outcome it received in this test. FALSE

Given `CCOc1ccc(OCc2ccc(C(=O)N(C)c3ccccc3)o2)cc1` , state the outcome it received in this test. FALSE

Given `Cc1ccc(S(=O)(=O)Nc2nc(C)cc(N/N=C/c3ccc(O)cc3)n2)cc1` , state the outcome it received in this test. FALSE

Given `C/C=C/C(=O)OCc1csc(CC(=O)Nc2ccccc2C)n1` , state the outcome it received in this test. TRUE

Given `COc1cc(Cl)c(C)cc1Nc1nnc(-n2nc(C)cc2C)c2ccccc12` , state the outcome it received in this test. FALSE

Given CCC(C(=O)NC(C)(C)C)n1c(-c2ccccc2)nc2ccccc21 (stereo unspecified) , state the outcome it received in this test. FALSE

Given `C=CC[C@@H](Cc1ccc(F)cc1)C(=O)OC[C@H]1CCCN1C(=O)[C@H](CC=C)CC(=O)N(CCO)Cc1ccccc1` , state the outcome it received in this test. FALSE

Given `CSc1nc(Nc2ccc(F)cc2)cc(-c2ccccc2)n1` , state the outcome it received in this test. FALSE

Given CCCNC(=O)C1(C)CCCN(C(=O)c2oc3ccccc3c2C)C1 (stereo unspecified) , state the outcome it received in this test. FALSE

Given `CN(C(=O)CN1CCN(c2cc(-c3ccc(OCc4ccccc4)cc3)ncn2)CC1)c1ccccc1` , state the outcome it received in this test. TRUE

Given `Cc1nc2c(OCc3ccc(Cl)cc3)cccn2c1N(C)Cc1cccs1` , state the outcome it received in this test. FALSE

Given `Cc1cc(N/N=C\c2ccc(Br)cc2)nc(-n2nc(C)cc2C)n1` , state the outcome it received in this test. TRUE

Given CC1C(C)N(C(=O)CCl)c2ccccc2N1C(=O)CCl (stereo unspecified) , state the outcome it received in this test. TRUE

Given `CCOC(=O)c1ccn(S(=O)(=O)c2ccc(C)cc2)c1-c1ccccc1` , state the outcome it received in this test. FALSE

Given `CSc1nc(-c2ccccc2)nc(C(Cl)Cl)n1` , state the outcome it received in this test. TRUE

Given `CC(=O)N1Cc2cc(C(=O)NCc3cccc(F)c3)nc(-c3cccc(C4=CCCCC4)c3)c2[C@H]1CCO` , state the outcome it received in this test. FALSE

Given `Cc1ccccc1NC(=O)Cc1nc(COC(=O)C(C)(C)Oc2ccc(Cl)cc2)cs1` , state the outcome it received in this test. FALSE

Given `CCCCC(CCCC)c1ccc(C=Nc2ccc(/C=C/c3ccnc4ccccc34)cc2)cc1` , state the outcome it received in this test. FALSE

Given `CN(Cc1ccccc1)C(=O)c1ccc(COc2ccccc2)cc1` , state the outcome it received in this test. FALSE

Given `COc1ccccc1/C=N\Nc1cc(C)nc(-n2nc(C)cc2C)n1` , state the outcome it received in this test. TRUE
